B1: CSNK1G1 (parent)
chain: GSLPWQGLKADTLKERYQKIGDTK

- Variants of: B1
- Test Summary: protein stability index of a GFP-peptide fusion (GPS, HEK-293T) (PSI 1-6); higher = more stable;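 note: lentivirally expressed fusions sorted by FACS into six bins by GFP to DsRed ratio, PSI derived from sequencing read proportions per bin multiplied by bin number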
- Assay Context: c terminus: a fixed tail appended
Measurement Name: protein stability index
Answers are plain numbers.

Please state protein stability index for every variant in the list that follows.
1. A10G
2. Q6A
3. L13C
4. L8G
5. D11I
6. I20P

1. 4.46
2. 3.7
3. 3.71
4. 4.76
5. 3.73
6. 4.75

Please state protein stability index for every variant in the list that follows.
1. T23Q
2. W5P
3. R16F
4. E15A

1: 3.96; 2: 4.62; 3: 3.98; 4: 3.74

Please state protein stability index for every variant in the list that follows.
1. K9H
2. Q18V
3. E15G
4. G21S
5. W5D

1. 4.24
2. 3.64
3. 4.07
4. 4.3
5. 5.18
